Biological target: Angiopoietin-1 receptor (Homo sapiens, UniProt Q02763)
Sequence (Q02763 whole entry, the tested form may be a part): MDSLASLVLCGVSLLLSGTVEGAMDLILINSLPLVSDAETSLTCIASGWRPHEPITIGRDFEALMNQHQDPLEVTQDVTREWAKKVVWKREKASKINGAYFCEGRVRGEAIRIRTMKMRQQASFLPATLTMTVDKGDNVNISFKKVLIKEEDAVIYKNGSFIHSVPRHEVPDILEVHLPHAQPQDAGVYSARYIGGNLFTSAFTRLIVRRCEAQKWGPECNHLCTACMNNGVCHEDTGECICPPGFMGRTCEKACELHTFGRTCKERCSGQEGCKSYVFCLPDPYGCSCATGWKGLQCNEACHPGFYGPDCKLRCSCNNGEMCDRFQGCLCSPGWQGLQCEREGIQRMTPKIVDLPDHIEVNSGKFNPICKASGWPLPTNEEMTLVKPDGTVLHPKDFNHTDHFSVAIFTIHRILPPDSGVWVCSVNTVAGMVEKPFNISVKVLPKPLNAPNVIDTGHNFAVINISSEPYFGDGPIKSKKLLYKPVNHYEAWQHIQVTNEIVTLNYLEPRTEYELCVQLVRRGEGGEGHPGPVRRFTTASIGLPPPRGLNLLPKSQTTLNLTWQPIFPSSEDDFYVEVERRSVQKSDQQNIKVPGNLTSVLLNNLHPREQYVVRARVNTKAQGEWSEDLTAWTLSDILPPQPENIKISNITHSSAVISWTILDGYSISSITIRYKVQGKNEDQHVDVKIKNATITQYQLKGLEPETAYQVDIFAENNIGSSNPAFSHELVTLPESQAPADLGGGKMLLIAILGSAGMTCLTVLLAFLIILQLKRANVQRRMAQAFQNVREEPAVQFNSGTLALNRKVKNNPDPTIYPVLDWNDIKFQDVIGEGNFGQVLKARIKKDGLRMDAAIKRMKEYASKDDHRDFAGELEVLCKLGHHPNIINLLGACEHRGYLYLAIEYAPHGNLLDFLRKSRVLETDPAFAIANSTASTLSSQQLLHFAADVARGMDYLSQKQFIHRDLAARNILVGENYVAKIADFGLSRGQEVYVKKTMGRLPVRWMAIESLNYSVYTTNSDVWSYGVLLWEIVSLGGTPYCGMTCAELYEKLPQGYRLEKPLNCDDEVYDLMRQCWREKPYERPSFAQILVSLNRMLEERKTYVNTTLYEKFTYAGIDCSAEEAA
Assay: Inhibition of recombinant human GST-tagged TEK (817 to 1101 residues) expressed in baculovirus expression system using biotin as substrate preincubated for 5 mins followed by substrate addition and measured after 30 to 60 mins in presence of ATP by HTRF assay
READOUT TYPE: IC50

// query Request the reported IC50 associated with `Cn1cc(-c2ccc(F)cc2)c(=O)c2c(Nc3ccc(Oc4ccnc(NC(=O)C5CC5)c4)c(F)c3)nccc21`
// result 26.3 nM

----------
Assay: AUC (0 to infinity) in Sprague-Dawley rat at 5.0 mg/kg, ig measured for 15 min to 72 hrs by LC-MS/MS analysis
Format: ADME, organism-based
Parameters: dose 5 mg/kg, time infinity, route intragastric
Details: in vivo, po
READOUT TYPE: AUC(0-inf) (µg·h/mL)
State the answer as a number, implicitly in µg·h/mL.

{"CHEM SMILES": "O=C(Nc1cc(Oc2ccc(Nc3nccc4[nH]cc(-c5ccc(F)cc5)c(=O)c34)cc2F)ccn1)C1CC1", "READOUT TYPE": "AUC(0-inf)", "RECORDED NUMBER": 42.2}

// below: AUC(0-inf) requested for another molecule
// query Request the reported AUC(0-inf) associated with `Cn1cc(-c2ccc(F)cc2)c(=O)c2c(Nc3ccc(Oc4ccnc(NC(=O)C5CC5)c4)c(F)c3)nccc21`
// result 233

----------
Target: BDNF/NT-3 growth factors receptor (Homo sapiens, UniProt Q16620)
Sequence (Q16620 whole entry, the tested form may be a part): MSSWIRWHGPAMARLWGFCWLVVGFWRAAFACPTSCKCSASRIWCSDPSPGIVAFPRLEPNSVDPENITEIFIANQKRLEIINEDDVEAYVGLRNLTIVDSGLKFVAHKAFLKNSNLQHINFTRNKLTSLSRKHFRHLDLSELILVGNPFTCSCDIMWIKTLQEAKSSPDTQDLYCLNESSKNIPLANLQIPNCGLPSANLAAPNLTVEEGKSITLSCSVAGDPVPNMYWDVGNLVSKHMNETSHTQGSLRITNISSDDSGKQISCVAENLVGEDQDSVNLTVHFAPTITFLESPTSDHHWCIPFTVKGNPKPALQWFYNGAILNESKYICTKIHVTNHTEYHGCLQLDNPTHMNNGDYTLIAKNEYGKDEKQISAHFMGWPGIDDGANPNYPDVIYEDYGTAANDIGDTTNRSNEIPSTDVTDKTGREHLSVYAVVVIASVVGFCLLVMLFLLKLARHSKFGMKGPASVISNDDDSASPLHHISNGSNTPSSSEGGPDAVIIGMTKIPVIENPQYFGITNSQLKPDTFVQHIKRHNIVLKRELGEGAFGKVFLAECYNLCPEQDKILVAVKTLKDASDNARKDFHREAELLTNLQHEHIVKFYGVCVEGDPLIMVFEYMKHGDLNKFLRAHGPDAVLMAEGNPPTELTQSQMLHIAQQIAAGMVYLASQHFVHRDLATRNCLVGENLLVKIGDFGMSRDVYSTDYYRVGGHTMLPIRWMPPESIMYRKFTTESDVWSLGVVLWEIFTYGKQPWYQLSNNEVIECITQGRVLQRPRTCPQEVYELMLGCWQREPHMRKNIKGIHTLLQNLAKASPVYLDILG
Assay: Inhibition of recombinant human His-tagged TRKB catalytic domain (526 to 838 residues) expressed in baculovirus expression system using biotin as substrate preincubated for 5 mins followed by substrate addition and measured after 30 to 60 mins in presence of ATP by HTRF assay
READOUT TYPE: IC50 (µM)
State the answer as a number, implicitly in µM.

// query Request the reported IC50 associated with `Cn1cc(-c2ccc(F)cc2)c(=O)c2c(Nc3ccc(Oc4ccnc(NC(=O)C5CC5)c4)c(F)c3)nccc21`
// result 0.0588

----------
Test: Clearance in Sprague-Dawley rat at 2.5 mg/kg, iv measured for 5 min to 72 hrs by LC-MS/MS analysis
Assay type: ADME, organism-based
Conditions: in vivo
READOUT TYPE: clearance
Kindly format the answer as number then unit.

// query Request the reported clearance associated with `Nc1nccc(Oc2ccc(Nc3nccc4[nH]cc(-c5ccc(F)cc5)c(=O)c34)cc2F)c1Cl`
// result 10 mL/min/kg

----------
Target: Vascular endothelial growth factor receptor 3 (Homo sapiens, UniProt P35916)
Sequence (P35916 whole entry, the tested form may be a part): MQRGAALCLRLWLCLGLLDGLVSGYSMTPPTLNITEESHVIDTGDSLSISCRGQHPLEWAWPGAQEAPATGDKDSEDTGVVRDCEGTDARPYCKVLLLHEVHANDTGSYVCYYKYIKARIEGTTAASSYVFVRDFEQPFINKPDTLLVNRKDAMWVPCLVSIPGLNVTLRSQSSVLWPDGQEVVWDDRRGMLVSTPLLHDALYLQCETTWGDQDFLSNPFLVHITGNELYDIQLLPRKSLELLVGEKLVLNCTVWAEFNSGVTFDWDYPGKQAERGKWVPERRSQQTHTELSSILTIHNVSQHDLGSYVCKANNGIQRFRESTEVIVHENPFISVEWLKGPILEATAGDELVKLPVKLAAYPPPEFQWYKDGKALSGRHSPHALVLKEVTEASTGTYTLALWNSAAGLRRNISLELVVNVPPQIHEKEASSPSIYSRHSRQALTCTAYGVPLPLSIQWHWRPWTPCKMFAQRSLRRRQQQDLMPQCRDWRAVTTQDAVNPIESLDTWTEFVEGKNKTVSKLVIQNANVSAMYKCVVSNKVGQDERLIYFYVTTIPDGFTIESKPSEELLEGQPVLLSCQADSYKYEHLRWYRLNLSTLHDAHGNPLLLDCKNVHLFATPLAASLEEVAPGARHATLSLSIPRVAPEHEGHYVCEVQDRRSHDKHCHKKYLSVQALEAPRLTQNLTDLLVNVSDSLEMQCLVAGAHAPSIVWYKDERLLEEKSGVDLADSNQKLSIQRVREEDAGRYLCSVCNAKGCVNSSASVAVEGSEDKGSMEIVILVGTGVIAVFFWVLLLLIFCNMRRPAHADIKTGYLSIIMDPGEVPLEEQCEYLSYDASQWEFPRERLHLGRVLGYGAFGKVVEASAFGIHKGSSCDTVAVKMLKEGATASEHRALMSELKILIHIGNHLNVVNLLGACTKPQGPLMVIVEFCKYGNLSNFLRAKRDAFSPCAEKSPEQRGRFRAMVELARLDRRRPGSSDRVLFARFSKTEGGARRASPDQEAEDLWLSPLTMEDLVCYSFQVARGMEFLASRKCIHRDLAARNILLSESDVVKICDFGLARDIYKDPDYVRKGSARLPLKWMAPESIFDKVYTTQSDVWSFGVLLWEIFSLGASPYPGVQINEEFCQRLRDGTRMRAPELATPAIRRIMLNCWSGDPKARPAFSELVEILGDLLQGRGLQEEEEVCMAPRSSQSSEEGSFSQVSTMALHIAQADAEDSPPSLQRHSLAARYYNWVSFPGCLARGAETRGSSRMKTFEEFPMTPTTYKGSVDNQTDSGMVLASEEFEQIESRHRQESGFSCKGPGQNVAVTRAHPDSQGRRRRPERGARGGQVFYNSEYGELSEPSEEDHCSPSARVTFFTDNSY
Experiment: Inhibition of recombinant human GST-tagged FLT4 catalytic domain (800 to 1297 residues) expressed in baculovirus expression system using biotin as substrate preincubated for 5 mins followed by substrate addition and measured after 30 to 60 mins in presence of ATP by HTRF assay
READOUT TYPE: pIC50
The quantity pIC50 is defined as the negative base-10 logarithm of the molar concentration.

// query Request the reported pIC50 associated with `Cn1cc(-c2ccc(F)cc2)c(=O)c2c(Nc3ccc(Oc4ccnc(NC(=O)C5CC5)c4)c(F)c3)nccc21`
// result 6.23

----------
Target: Vascular endothelial growth factor receptor 2 (Homo sapiens, UniProt P35968)
Sequence (P35968 whole entry, the tested form may be a part): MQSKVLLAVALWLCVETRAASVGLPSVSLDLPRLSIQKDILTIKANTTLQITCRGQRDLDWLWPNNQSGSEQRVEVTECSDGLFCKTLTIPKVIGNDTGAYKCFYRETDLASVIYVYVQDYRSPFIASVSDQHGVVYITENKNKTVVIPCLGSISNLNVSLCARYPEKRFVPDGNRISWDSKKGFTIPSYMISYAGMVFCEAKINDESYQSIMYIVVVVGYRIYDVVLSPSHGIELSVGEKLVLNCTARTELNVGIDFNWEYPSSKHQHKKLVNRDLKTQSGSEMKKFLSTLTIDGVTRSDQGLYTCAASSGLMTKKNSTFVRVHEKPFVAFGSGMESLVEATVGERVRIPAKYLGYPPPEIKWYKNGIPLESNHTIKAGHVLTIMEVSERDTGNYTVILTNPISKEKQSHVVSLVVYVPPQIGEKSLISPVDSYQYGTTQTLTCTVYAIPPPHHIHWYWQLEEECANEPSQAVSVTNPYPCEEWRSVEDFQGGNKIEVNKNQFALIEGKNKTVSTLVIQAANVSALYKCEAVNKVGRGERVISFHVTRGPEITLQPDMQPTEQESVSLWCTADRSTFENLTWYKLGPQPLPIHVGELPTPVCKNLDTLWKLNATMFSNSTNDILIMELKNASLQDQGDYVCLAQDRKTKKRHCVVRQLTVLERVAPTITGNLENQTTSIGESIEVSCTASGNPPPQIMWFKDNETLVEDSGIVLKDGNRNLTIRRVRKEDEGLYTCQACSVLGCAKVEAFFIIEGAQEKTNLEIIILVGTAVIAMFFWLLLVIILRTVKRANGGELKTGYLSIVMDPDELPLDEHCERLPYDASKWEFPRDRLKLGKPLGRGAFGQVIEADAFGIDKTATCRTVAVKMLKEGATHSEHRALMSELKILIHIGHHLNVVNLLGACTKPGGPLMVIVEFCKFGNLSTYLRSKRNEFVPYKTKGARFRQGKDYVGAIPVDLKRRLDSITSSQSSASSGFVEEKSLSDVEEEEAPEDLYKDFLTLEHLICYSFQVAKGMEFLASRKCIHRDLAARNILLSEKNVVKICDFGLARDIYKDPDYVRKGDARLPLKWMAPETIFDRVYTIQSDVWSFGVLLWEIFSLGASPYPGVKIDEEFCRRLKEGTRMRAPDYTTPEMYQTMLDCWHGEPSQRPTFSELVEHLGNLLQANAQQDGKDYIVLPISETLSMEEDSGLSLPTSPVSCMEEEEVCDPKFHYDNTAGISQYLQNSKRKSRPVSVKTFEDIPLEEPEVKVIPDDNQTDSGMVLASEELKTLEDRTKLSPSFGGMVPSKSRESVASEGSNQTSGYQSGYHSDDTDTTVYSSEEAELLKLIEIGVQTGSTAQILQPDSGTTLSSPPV
Test: Inhibition of purified recombinant VEGFR2 kinase domain (unknown origin) using biotin as substrate preincubated for 5 mins followed by substrate addition and measured after 30 to 60 mins in presence of ATP by HTRF assay
pIC50: −log10 of the molar value.
Kind request: treat 7 as inclusive, so pIC50 at 7 or higher is Condition met, anything lower is Condition not met.

These recorded examples may help you get a feel for the data.
{"COMPOUND": "CCn1cc(-c2ccc(F)cc2)c(=O)c2c(Nc3ccc(Oc4ccnc(NC(=O)C5CC5)c4)c(F)c3)nccc21", "CAT": "Condition not met"}
{"COMPOUND": "CC(O)C(=O)Nc1cc(Oc2ccc(Nc3nccc4[nH]cc(-c5ccc(F)cc5)c(=O)c34)cc2F)ccn1 (stereo not drawn)", "CAT": "Condition not met"}
{"COMPOUND": "Cn1cc(-c2ccc(F)cc2)c(=O)c2c(Nc3ccc(Oc4ccnc(NC(=O)C5CC5)c4)c(F)c3)nccc21", "CAT": "Condition not met"}
{"COMPOUND": "CC(C)C(=O)Nc1cc(Oc2ccc(Nc3nccc4[nH]cc(-c5ccc(F)cc5)c(=O)c34)cc2F)ccn1", "CAT": "Condition not met"}
{"COMPOUND": "CC(C)(O)C(=O)Nc1cc(Oc2ccc(Nc3nccc4[nH]cc(-c5ccc(F)cc5)c(=O)c34)cc2F)ccn1", "CAT": "Condition not met"}
{"COMPOUND": "O=C(Nc1cc(Oc2ccc(Nc3nccc4c3c(=O)c(-c3ccc(F)cc3)cn4CCO)cc2F)ccn1)C1CC1", "CAT": "Condition not met"}
{"COMPOUND": "CC(=O)Nc1cc(Oc2ccc(Nc3nccc4[nH]cc(-c5ccc(F)cc5)c(=O)c34)cc2F)ccn1", "CAT": "Condition met"}
{"COMPOUND": "CC(C)(O)Cn1cc(-c2ccc(F)cc2)c(=O)c2c(Nc3ccc(Oc4ccnc(NC(=O)C5CC5)c4)c(F)c3)nccc21", "CAT": "Condition not met"}

// query Reported pIC50 at or above 7? `O=C(Nc1cc(Oc2ccc(Nc3nccc4[nH]cc(-c5ccc(F)cc5)c(=O)c34)cc2F)ccn1)C1CC1`
// result Condition met

// query Lookup `CCC(=O)Nc1cc(Oc2ccc(Nc3nccc4[nH]cc(-c5ccc(F)cc5)c(=O)c34)cc2F)ccn1`
// result Condition met

// query Lookup `O=C(CO)Nc1cc(Oc2ccc(Nc3nccc4[nH]cc(-c5ccc(F)cc5)c(=O)c34)cc2F)ccn1`
// result Condition met
